meta.source: patent US12448369B2

Test system: Porcine atria myofibrils (atrial myosin ATPase)
measurementDescription: Myofibril ATPase assay, porcine atria myofibrils
Assay type: biochemical
recordedConditions: Y75 value (no ‡ mark); porcine atria myofibrils
outcomeMeasure: Atrial EC25 (nM)
Entry rule: numbers only, all in nM.

As a guide, the following entries are already answered.
>>> valueobserved("Cc1c(C2(C(=O)N[C@H](C)c3ncc(C#N)cc3F)CC2)c(=O)[nH]c2ccc(F)cc12 (single isomer, unassigned) [compound 2596]")
110
>>> valueobserved("C[C@H](NC(=O)Cc1c(C(F)F)c2cc(F)ccc2[nH]c1=O)c1ccc(F)cc1F [compound 106]")
50
>>> valueobserved("Cc1c(CC(=O)N[C@@H](C)c2ccc(C#N)cc2F)c(=O)[nH]c2ccc(F)c(F)c12 [compound 66]")
50

Log: Porcine atria myofibrils (atrial myosin ATPase), molecule Cc1cc(C#N)nnc1[C@H](C)NC(=O)Cc1c(C)c2c(F)c(F)ccc2[nH]c1=O [compound 1136] , Atrial EC25 = 140

The reported Atrial EC25 value, Porcine atria myofibrils (atrial myosin ATPase), for Cc1c(CC(=O)N[C@H](C)c2ccc(C#N)cn2)c(=O)[nH]c2cc(F)c(F)cc12 [compound 1112] reads 5010

# Atrial EC25 measured on Porcine atria myofibrils (atrial myosin ATPase) for item Cc1nc(C#N)cnc1[C@@H](C)NC(=O)C(F)(F)c1c(C)c2cc(F)ccc2[nH]c1=O (single isomer, unassigned) [compound 2567] = 340
